Test system: Cytomegalovirus
Assay Method Text: Antiviral activity against Cytomegalovirus assessed as inhibition of virus-induced cytopathicity by cell based assay
Format: functional, organism-based
Test Context: Human betaherpesvirus 5
Consider the following compounds; for each one, report its EC50.

See these solved cases before continuing.
C[C@H](NP(=O)(OC[C@H]1O[C@@H](n2cnc(C(N)=O)n2)[C@H](O)[C@@H]1O)Oc1cccc2ccccc12)C(=O)OCc1ccccc1 (stereo partly drawn) :: > 100 µM
NC(=O)c1ncn([C@@H]2O[C@H](COP(=O)(N[C@@H](Cc3ccccc3)C(=O)OCc3ccccc3)Oc3cccc4ccccc34)[C@@H](O)[C@H]2O)n1 (stereo partly drawn) :: > 100 µM

The recorded EC50 for NC(=O)c1ncn([C@@H]2O[C@H](COP(=O)(NCC(=O)OCc3ccccc3)Oc3cccc4ccccc34)[C@@H](O)[C@H]2O)n1 (stereo partly drawn) is > 100 µM
